Just for reference, PubChem BioAssay AID504466 is where these values come from.

test: qHTS screen for small molecules that induce genotoxicity in human embryonic kidney (HEK293T) cells expressing luciferase-tagged ELG1; settings: HEK293T ELG1-luciferase reporter, luminescence, 16 h; series mostly up to 46 µM; also: nearly all actives have a fitted effect of over 60% in size
In all, about 330,000 compounds went through this assay and about 4,200 (1.3%) were called active. Another 6% or so got no clear call; they are omitted. Calls follow the shape of the dose curve; as a rule, active = well fitted activation curve with a large enough effect; inconclusive = small, poorly fitted or top-dose-only effect; inactive = no such curve, though single readings can be large or run the other way. Only a selection was taken, and actives are over-represented in it overall.
Pick one: label 1 = active, label 0 = inactive

Query: recorded result category for "CCN(CC)c1ccc(/C=N/NC(=O)CNC(=O)c2cccnc2)cc1" in this test label 0

Query: recorded result category for Cc1ccc(NC(=O)c2cnc(SCC(=O)NCC3CCCO3)n(C)c2=O)cc1 (configuration not stated) in this test label 1

Query: recorded result category for "CN(CC(=O)O)C(=O)c1ccccc1" in this test label 0

Query: recorded result category for CCn1c(SCC(=O)NCC2CCCO2)nc2ccccc21 (configuration not stated) in this test label 0

Query: recorded result category for O=C(COC(=O)c1ccc(F)cc1)NCC1COc2ccccc2O1 (configuration not stated) in this test label 0

Query: recorded result category for "Cc1ccc(C(=O)NNC(=O)CSc2nnc3ccccn23)cc1" in this test label 0

Query: recorded result category for CC1(C)C[C@H]2C3=CCC4[C@@]5(C)CC[C@H](O)[C@](C)(CO)C5CC[C@@]4(C)[C@]3(C)C[C@@H](O)[C@@]2(CO)[C@@H](O)[C@@H]1O (some centres not stated) in this test label 0

Query: recorded result category for "Cc1ccc(-n2c(C)cc(C(=O)CSc3nnc4ccccn34)c2C)cc1" in this test label 1

Query: recorded result category for "O=C(OCC(=O)N1CCCCCC1)c1ccc(Br)c(S(=O)(=O)N2CCOCC2)c1" in this test label 0

Query: recorded result category for "CCOC(=O)N1CCC(NC(=O)c2cnn3ccccc23)CC1" in this test label 0

Query: recorded result category for CCOC(=O)C1CCN(C(=O)CN2C(=O)NC(C)(c3ccc4cc(OC)ccc4c3)C2=O)CC1 (configuration not stated) in this test label 0

Query: recorded result category for "O=C(NCCCN1CCOCC1)c1cn(-c2ccccc2)nc1-c1ccc(F)cc1" in this test label 0

Query: recorded result category for "O=C(CN1C(=O)NC2(CCCCCC2)C1=O)Nc1ccc([N+](=O)[O-])cc1" in this test label 0

Query: recorded result category for "Cc1ccc(C(=O)NCCNC(=O)c2cnccn2)cc1" in this test label 0

Query: recorded result category for "CS(=O)(=O)N1CCc2nc(-c3ccccc3)sc2C1" in this test label 1

Query: recorded result category for "CCN(CC)c1ccc(/C=N/NC(=O)c2cnccn2)c(O)c1" in this test label 1

Query: recorded result category for "CN(CC(=O)Nc1ccc(OC(F)F)cc1)S(=O)(=O)/C=C/c1ccccc1" in this test label 0

Query: recorded result category for O=C(CN1C(=O)NC(Cc2c[nH]c3ccccc23)C1=O)Nc1ccccc1C(F)(F)F (configuration not stated) in this test label 0

Query: recorded result category for "O=C(CSc1nnc2ccccn12)c1ccccc1" in this test label 1

Query: recorded result category for "COc1ccc(S(=O)(=O)N(C)C[C@@H]2Oc3ccc(NC(=O)Nc4c(C)noc4C)cc3C(=O)N([C@H](C)CO)C[C@@H]2C)cc1" in this test label 0

Query: recorded result category for "Cn1c(SCC(=O)c2ccccc2)ncc(C(=O)Nc2ccc(F)cc2)c1=O" in this test label 0

Query: recorded result category for "O=C(c1cnn2ccccc12)N1CCc2ccccc21" in this test label 1

* * *

assay: qHTS screen for small molecules that induce genotoxicity in human embryonic kidney (HEK293T) cells expressing luciferase-tagged ELG1; details: HEK293T ELG1-luciferase reporter, luminescence, 16 h; series mostly up to 46 µM; also: nearly all actives have a fitted effect of over 60% in size
Among all 330,000 compounds or so, about 4,200 (1.3%) were called active. Inconclusive results (about 6%) are left out. Calls come from the whole dose curve; as a rule, active = well fitted activation curve with a large enough effect; inconclusive = small, poorly fitted or top-dose-only effect; inactive = no such curve, though single readings can be large or run the other way. The full list was thinned out, with actives kept by preference.
Pick one: TRUE for active, FALSE for inactive

Query: recorded result category for "O=C(Nc1ccc(C(=O)O)c(O)c1)c1ccccc1" in this test FALSE

Query: recorded result category for "O=C(NC(=O)c1ccccc1)Nc1ccccc1O" in this test TRUE

Query: recorded result category for "O=C(OCC(=O)N1CCCC1)c1ccco1" in this test FALSE

Query: recorded result category for "N#CC(=C1SC=CS1)c1nc(-c2ccccc2)cs1" in this test TRUE

Query: recorded result category for "Cc1ccc(NC(=O)NC(=O)c2ccccc2)cc1F" in this test FALSE

Query: recorded result category for "N#C/C(=C1/CCCN1)c1ccccn1" in this test FALSE

Query: recorded result category for "Cn1nnnc1SCC(=O)Nc1cccc(S(=O)(=O)N2CCCCC2)c1" in this test FALSE

* * *

Assay: qHTS screen for small molecules that induce genotoxicity in human embryonic kidney (HEK293T) cells expressing luciferase-tagged ELG1; also: nearly all actives have a fitted effect of over 60% in size; also: potency is read from the fitted curve at half-maximal effect
Conditions: HEK293T ELG1-luciferase reporter, luminescence, 16 h; series mostly up to 46 µM
Excerpt: NIH Molecular Libraries Probe Production Network [MLPCN] NIH Chemical Genomics Center [NCGC] MLPCN Grant: 1 R03 MH092164-01 Assay Provider: Kyungjae Myung, NHGRI, NIH Keywords: MLPCN, qHTS, NCGC, genotoxicity, cancer Assay Overview: Cancer cells divide rapidly compared to normal cells in the body. During cell division, cancer cells need to duplicate their genome by DNA replication. […] With this in mind, we developed a quantitative high-throughput ELG1-luciferase reporter gene assay. […]
In all, about 330,000 compounds went through this assay and about 4,200 (1.3%) were called active. Another 6% or so got no clear call; they are omitted. For the sample, actives were picked, then their nearest neighbours and some compounds at random.
attribute measured: Potency

>>> result("CCOC(=O)C1=C(C)N(C[C@@H]2CC[C@@H](Cc3ccc(-c4ccccc4)cc3)O2)C(=O)NC1c1ccc([N+](=O)[O-])cc1 (some centres undefined)")
"inactive"
>>> result("CC(=O)Nc1ccc(NC(=S)NC(=O)/C=C/c2ccccc2)cc1")
"inactive"
>>> result("CCCCCCSc1ccc(-c2nc3ccc(Cl)cn3c2NCc2ccccc2)cc1")
"inactive"
>>> result("Cc1noc(C)c1NC(=O)Nc1ccc2c(c1)C(=O)N([C@H](C)CO)C[C@H](C)[C@@H](CN(C)S(=O)(=O)c1cn(C)cn1)O2")
"inactive"
>>> result("CCOc1ccc(NC(=O)c2ccc(NC(=O)COC(=O)c3ccc(NC(=O)CC#N)cc3)cc2)cc1")
"5.17 µM (active)"
>>> result("CCN(CC(=O)NCc1ccc(F)cc1)S(=O)(=O)c1ccc(Cl)s1")
"inactive"
>>> result("COc1ccccc1-c1nnc2n1N=C(c1ccc(OC(F)F)c(OCC3CC3)c1)CS2")
"inactive"
>>> result("O=C(COC(=O)c1ccc2c(c1)OCCO2)NCc1ccccc1Cl")
"inactive"

Name the recorded Potency for "CCN(C[C@H]1N[C@@](CC)(C(=O)OC)[C@H]2C(=O)N(C)C(=O)[C@@H]12)C(=O)Nc1ccc(F)cc1" . inactive

Name the recorded Potency for CC(OC(=O)/C=C/c1ccccc1)C(=O)Nc1ccc(C(N)=O)cc1 (centres undefined) . inactive

Name the recorded Potency for "CC(C)Sc1ncnc2c1cnn2-c1ccccc1" . 8.2 µM (active)

Name the recorded Potency for "CC[C@@H](C)[C@@H]1CN([C@@H](C)CN2CCC[C@H]2CN2C(N)=NC[C@H]2C(C)C)C(=N)N1CCc1ccc(Cl)c(Cl)c1" . inactive

Name the recorded Potency for CCC(C)N(C(=O)CSc1ncnc2c1cnn2-c1ccccc1)C1CCS(=O)(=O)C1 (centres undefined) . inactive

Name the recorded Potency for "Clc1ccc2nc(CSc3ccccc3)cn2c1" . 0.82 µM (active)

Name the recorded Potency for "O=C(COC(=O)c1ccc(F)c(S(=O)(=O)N2CCOCC2)c1)NCc1ccc2c(c1)OCO2" . inactive

Name the recorded Potency for "C[C@H]1COC(=O)[C@H](CC(=O)OC(C)(C)C)C/C=C\C[C@@H](CC(=O)N[C@H](CO)Cc2ccccc2)C(=O)N1" . inactive

Name the recorded Potency for CCOC(=O)C1CCCN(C(=O)CSc2nnc3nc(C)cc(C)n23)C1 (centres undefined) . inactive

Name the recorded Potency for CCCC(CNC(=O)COC(=O)C1=NNC(=O)CC1)c1ccc(Cl)cc1Cl (centres undefined) . inactive

Name the recorded Potency for "Cc1noc(NS(=O)(=O)c2ccc(N/C=C/C(=O)c3ccccc3)cc2)c1C" . inactive

* * *

test: qHTS screen for small molecules that induce genotoxicity in human embryonic kidney (HEK293T) cells expressing luciferase-tagged ELG1; conditions: HEK293T ELG1-luciferase reporter, luminescence, 16 h; series mostly up to 46 µM; also: nearly all actives have a fitted effect of over 60% in size
The campaign covered roughly 330,000 compounds. About 4,200 (1.3%) were called active. Roughly 6% stayed inconclusive and do not appear here. Calls follow the shape of the dose curve; as a rule, active = well fitted activation curve with a large enough effect; inconclusive = small, poorly fitted or top-dose-only effect; inactive = no such curve, though single readings can be large or run the other way. The sample holds actives, similar compounds and a random draw of the others, so the mix is not that of the screen.
Pick one: 1 (active), 0 (inactive)

Query: recorded result category for "COc1cccc(C(=O)Nc2nc3ccc(S(C)(=O)=O)cc3s2)c1" in this test 0

Query: recorded result category for CC(C)CC1NC(=O)c2cc(Cl)ccc2-n2c1nc1ccccc1c2=O (configuration not stated) in this test 0

Query: recorded result category for "COc1ccc(-n2cnc3cc(C(=O)NC4CCCC4)ccc32)cc1" in this test 0

Query: recorded result category for "O=c1c2ccccc2ncn1/N=C/c1ccccc1" in this test 1

Query: recorded result category for "COc1cccc(-c2cc(C(=O)N3CCN(c4ccccc4OC)CC3)no2)c1" in this test 0

Query: recorded result category for "O=C(Nc1cccc([N+](=O)[O-])c1)c1ccc2c(c1)OCO2" in this test 0

Query: recorded result category for "COc1ccc(-c2cc(C(=O)N3CCN(c4ccc(F)cc4)CC3)no2)cc1" in this test 0

Query: recorded result category for "O=C(NCc1ccccc1Cl)c1csc2c1CCCCC2" in this test 0

Query: recorded result category for "CN(C)c1ccc(-c2nnc(-c3cccnc3)o2)cc1" in this test 1

Query: recorded result category for "COc1ccc(Nc2nc(NCc3ccco3)nc(N/N=C/c3ccccc3Cl)n2)cc1" in this test 0

Query: recorded result category for "Cc1ccc(S(=O)(=O)N2C[C@@H]3CCCC[C@@H]3[C@@H](C)[C@H]2c2cn(Cc3ccccc3)c3ccc(F)cc23)cc1" in this test 0

Query: recorded result category for "COc1ccccc1-c1cc(C(=O)N2CCCCC2)no1" in this test 1

Query: recorded result category for "CCCCNc1c(-c2ccc(OC)c(Sc3ccc(OC)cc3)c2)nc2ccc(Cl)cn12" in this test 0

Query: recorded result category for "Nc1ncnc2c1ncn2[C@@H]1O[C@H](CNS(=O)(=O)c2ccc(-c3ccno3)s2)[C@@H](O)[C@H]1O" in this test 0

Query: recorded result category for "O=c1c2ccccc2nc(N/N=C/c2ccccc2)n1O" in this test 0

Query: recorded result category for "C[C@@H]1CN([C@@H](C)CO)C(=O)c2cccc(NS(=O)(=O)c3ccc(F)cc3)c2O[C@H]1CN(C)C(=O)NC1CCCCC1" in this test 0

Query: recorded result category for "COc1cc(OC)cc(C(=O)NNC(=O)Cc2cccs2)c1" in this test 0

Query: recorded result category for "O=C(Nc1ccc2c(c1)OCO2)c1ccc(N2C(=O)c3ccccc3C2=O)cc1" in this test 0

Query: recorded result category for "CNC(=O)c1ccc2nc(NC(C)=O)sc2c1" in this test 1

Query: recorded result category for "COC(=O)c1sc(NC(=O)c2csc3c2CCCC3)nc1C" in this test 1

Query: recorded result category for "COc1ccc(-n2cnc3cc(NCc4ccco4)ccc32)cc1" in this test 1

Query: recorded result category for COc1cc(C2CC(=O)Oc3cc(OC)c(OC)c(OC)c32)cc(OC)c1OC (configuration not stated) in this test 0
